Known pIC50 of a selection of compounds
- Target desc: TAFIa (Homo sapiens)
- Sequence (Q96IY4 115-423): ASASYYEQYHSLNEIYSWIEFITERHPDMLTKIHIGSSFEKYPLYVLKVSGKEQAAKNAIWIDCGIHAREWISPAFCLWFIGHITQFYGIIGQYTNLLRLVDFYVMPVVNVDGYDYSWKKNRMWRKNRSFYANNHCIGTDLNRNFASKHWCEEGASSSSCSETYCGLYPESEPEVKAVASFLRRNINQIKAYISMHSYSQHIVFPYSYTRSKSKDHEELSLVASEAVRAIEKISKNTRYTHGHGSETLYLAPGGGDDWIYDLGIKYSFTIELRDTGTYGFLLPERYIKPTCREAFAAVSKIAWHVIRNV
- Assay comment: TAFIa inhibition test (Hip-Arg substrate, absorbance at 405 nm)
- Particulars: TAFI activated with thrombin/thrombomodulin, 40 minutes at room temperature, read-out: TAFIa inhibitory activity IC50
pIC50: −log10 of the molar value. Where a name gives a salt, the structure may show the parent alone.
Readout kind: pIC50

• Cc1ccc2c(c1)CCc1c(C[C@@H](C(=O)O)N3CC[C@H](N)C3)ncn1-2 [Compound 2, trihydrochloride] = 7.64
• N[C@H]1CCN([C@@H](Cc2ncn3c2CCc2ccccc2-3)C(=O)O)C1 [Compound 1, trihydrochloride] = 7.44

Values from patent US20120172598A1
